Target: panel of 203 kinases (Homo sapiens, UniProt P22607)
Construct: purchased DiscoverX (KINOMEscan)
Sequence (P22607 23-806): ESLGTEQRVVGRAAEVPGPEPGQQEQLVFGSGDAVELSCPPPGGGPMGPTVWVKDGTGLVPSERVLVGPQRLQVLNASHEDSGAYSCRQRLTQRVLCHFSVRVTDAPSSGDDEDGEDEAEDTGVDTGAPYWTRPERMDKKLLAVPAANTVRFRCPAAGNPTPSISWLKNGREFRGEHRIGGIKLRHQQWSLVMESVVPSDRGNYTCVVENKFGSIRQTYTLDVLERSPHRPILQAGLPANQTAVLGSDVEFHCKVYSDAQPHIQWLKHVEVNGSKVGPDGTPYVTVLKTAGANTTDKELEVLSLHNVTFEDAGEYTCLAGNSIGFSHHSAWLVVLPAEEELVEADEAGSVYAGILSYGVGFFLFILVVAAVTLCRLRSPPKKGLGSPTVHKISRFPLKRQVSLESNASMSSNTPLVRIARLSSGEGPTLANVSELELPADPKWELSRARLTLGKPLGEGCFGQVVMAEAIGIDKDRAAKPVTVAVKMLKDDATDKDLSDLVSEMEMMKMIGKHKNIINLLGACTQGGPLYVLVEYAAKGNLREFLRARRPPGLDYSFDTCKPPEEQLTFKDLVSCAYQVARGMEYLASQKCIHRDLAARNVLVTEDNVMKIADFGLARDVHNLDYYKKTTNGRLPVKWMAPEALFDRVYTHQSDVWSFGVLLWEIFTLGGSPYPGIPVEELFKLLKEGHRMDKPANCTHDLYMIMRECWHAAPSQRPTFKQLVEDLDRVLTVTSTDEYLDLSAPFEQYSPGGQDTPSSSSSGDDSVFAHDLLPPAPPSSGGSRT
Assay: KINOMEscan competitive binding, whole panel
Settings: 10 µM, n=1; kinase FGFR3; read-out: Percent inhibition FGFR3
This section presents compounds with their documented inhibition at 10 µM values.
# number only, unit % dropped from output

Cc1ccc(O)cc1Nc1ccnc(Nc2cccc(C(N)=O)c2)n1	0
COc1cc(Nc2nccc(-c3sc(N)nc3-c3cccc(NC(=O)c4c(F)cccc4F)c3)n2)cc(OC)c1OC	100
COc1ccc(Nc2nccc(-c3cnn4ncccc34)n2)cc1	67.6

stdin: inhibition at 10 µM for Cc1ccc(O)cc1N(C)c1ccnc(Nc2cccc(S(N)(=O)=O)c2)n1 ?
stdout: 65.4

stdin: inhibition at 10 µM for c1ccc(COc2cccc(-c3ccnc4[nH]ccc34)c2)cc1 ?
stdout: 0

stdin: inhibition at 10 µM for Clc1ccc(Nc2ncc(-c3ccccc3)s2)cc1 ?
stdout: 0

stdin: inhibition at 10 µM for Fc1cccc(COc2ccc(Nc3ncnc4c3CN(CCN3CCOCC3)CC4)cc2Cl)c1 ?
stdout: 96.3

stdin: inhibition at 10 µM for C[C@@H](Oc1cc(-c2cnc3ccccn23)sc1C(N)=O)c1ccccc1Cl ?
stdout: 0

stdin: inhibition at 10 µM for CN1CCN(c2ccc(Nc3nccc(-c4cnn5ncccc45)n3)cc2C#N)CC1 ?
stdout: 0

stdin: inhibition at 10 µM for Nc1ncc2c(-c3ccncc3)c[nH]c2n1 ?
stdout: 0
